- SUBJECT_OF_TEST: T1, recombinant human TROP2 extracellular domain (aa 1-274) comprising His tag (human, UniProt P09758 27-274)
- T1 construct: Used here for all assays on recombinant human TROP2 (ELISA, immunoblot, SPR, crystal), although only some of them name the catalogue number; also called human recombinant TROP2; recombinant human TROP2 protein; not shown: His tag
- T1 sequence: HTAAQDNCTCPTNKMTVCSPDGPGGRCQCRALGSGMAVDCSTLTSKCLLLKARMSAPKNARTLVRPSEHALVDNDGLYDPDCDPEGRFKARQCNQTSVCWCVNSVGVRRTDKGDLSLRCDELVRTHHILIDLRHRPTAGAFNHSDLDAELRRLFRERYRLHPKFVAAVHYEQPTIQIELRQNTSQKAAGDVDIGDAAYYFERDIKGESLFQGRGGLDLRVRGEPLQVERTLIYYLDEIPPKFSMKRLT
- ASSAY: ELISA, coated rh TROP2
ASSAY_METRIC: EC50 (nM)
Please respond with the number in nM and leave the unit unwritten.

Examples from the recorded data:
KD051 (antibody, V domains shown, KD005 humanized variant) VH: QVQLQESGGGLVQPGGSLRLSCAASGFTFSGSDMSWVRQAPGKGPEWVSYITSGGTTYYPDTVKGRFTISRDNAKNTLYLQMNSLKPDDTALYRCAKSRLTDSHYVEDAWGQGTQVTVSS | 0.12
KD054 (antibody, V domains shown, KD005 humanized variant) VH: QVQLQESGGGLIQPGGSLRLSCAASGFTFSGSDMSWVRQAPGKGLEWVSYITSGGTTYYADTVKGRFTISRDNSKNTLYLQMNSLRAEDTAVYRCAKSRLTDSHYVEDAWGQGTLVTVSS | 0.07
KD062 (antibody, V domains shown, KD005 humanized variant) VH: QVQLQESGGGLIQPGGSLRLSCAASGFTFSGSDMSWVRQAPGKGLEWVSYITSGGTTYYADTVKGRFTISRDNSKNTLYLQMNSLRAEDTALYRCAKSRLTDSHYVEDAWGQGTLVTVSS | 0.14
KD049 (antibody, V domains shown, KD005 humanized variant) VH: QVQLQESGGGLVQPGGSLRLSCAASGFTFSGSDMSWVRQAPGKGPEWVSYITSGGTTYYPDTVKGRFTISRDNSKNTLYLQMNSLRAEDTAVYRCAKSRLTDSHYVEDAWGQGTQVTVSS | 0.14

Task item: Look up EC50 for this binder: KD061 (antibody, V domains shown, KD005 humanized variant) VH: QVQLQESGGGLIQPGGSLRLSCAASGFTFSGSDMSWVRQAPGKGLEWVSYITSGGTTYYADTVKGRFTISRDNSKNTLYLQMNSLRADDTAVYRCAKSRLTDSHYVEDAWGQGTLVTVSS
Reply: 0.12

Task item: Look up EC50 for this binder: KD050 (antibody, V domains shown, KD005 humanized variant) VH: QVQLQESGGGLVQPGGSLRLSCAASGFTFSGSDMSWVRQAPGKGPEWVSYITSGGTTYYPDTVKGRFTISRDNSKNTLYLQMNSLKPDDTAVYRCAKSRLTDSHYVEDAWGQGTQVTVSS
Reply: 0.1

Task item: Look up EC50 for this binder: KD046 (antibody, V domains shown, KD005 humanized variant) VH: QVQLLESGGGLVQPGGSLRLSCAASGFTFSGSDMSWVRQAPGKGPEWVSYITSGGTTYYADTVKGRFTISRDNSKNTLYLQMNSLRAEDTAVYYCAKSRLTDSHYVEDAWGQGTLVTVSS
Reply: 0.08

Task item: Look up EC50 for this binder: KD044 (antibody, V domains shown, KD005 humanized variant) VH: EVQLLESGGGLVQPGGSLRLSCAASGFTFSGSDMSWVRQAPGKGLEWVSYITSGGTTYYADTVKGRFTISRDNSKNTLYLQMNSLRAEDTAVYYCAKSRLTDSHYVEDAWGQGTLVTVSS
Reply: 0.08
